Biological target: T1, human PD-L1 (Cat. #10084-H08H, Sino Biological) (human, UniProt Q9NZQ7 19-239)
T1 construct: Bought recombinant protein used in the Biacore test; also called hPDL1; hPD-L1
T1 sequence (Q9NZQ7 19-239 limits assumed): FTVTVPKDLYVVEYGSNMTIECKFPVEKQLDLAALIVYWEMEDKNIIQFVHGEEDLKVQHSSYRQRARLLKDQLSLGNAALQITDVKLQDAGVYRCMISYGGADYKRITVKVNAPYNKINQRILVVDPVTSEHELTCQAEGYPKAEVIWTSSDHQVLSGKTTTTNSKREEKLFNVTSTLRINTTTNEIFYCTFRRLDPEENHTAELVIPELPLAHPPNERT
Assay: SPR, Biacore X100, 1:1 Langmuir
Description: According to the method in the manual of human anti-capture kit (Cat. A BR-1008-39, GE), the human anti-capture antibody was covalently coupled to biosensor chip CM5 (Cat. #BR-1000-12, GE) so that a certain amount of human PD-L1 (Cat. #10084-H08H, Sino Biological) monkey PD-L1 (Cat. #90251-C08H, Sino Biological), mouse PD-L1 (Cat. #50010-M08H, Sino Biological) were affinity captured. The affinity of PD-L1 antibody reacting with PD-L1 was measured with Biacore X100, GE instrument.
pKd: −log10 of the molar value.
Recorded pKd, one value per entry.

Binder	pKd
H18L61 (antibody, human IgG1, kappa, V domains shown, also called 24D5 H18 and 24D5 L61) VH: QVQLVQSGAEVKKPGASVKVSCKASGYTFTSYWMHWVRQAPGQGLEWMGRISPSSGMAVYNEKFKNRVTMTRDTSTSTVYMELSSLRSEDTAVYYCARGGSSYDYFDYWGQGTTVTVSS VL: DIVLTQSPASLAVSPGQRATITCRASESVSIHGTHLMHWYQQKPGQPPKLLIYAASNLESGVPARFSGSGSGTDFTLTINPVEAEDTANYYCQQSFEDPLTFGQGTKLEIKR	10.48
H7L11 (antibody, human IgG1, kappa, V domains shown, also called 9-2 H7 and 9-2 L11) VH: QVQLQESGPGLVKPSQTLSLTCTVSGGSISNDYWTWIRQHPGKGLEYIGMISVAGSTYHTPSLKGRVTISRDTSKNQFSLKLSSVTAADTAVYYCARSGGWLAPFDYWGRGTLVTVSS VL: DIVMTQSPDSLAVSLGERATINCKSSQSLFYHSNQKHSLAWYQQKPGQPPKLLIYGASTRESGVPDRFSGSGSGTDFTLTISSLQAEDVAVYYCQQYYGYPYTFGGGTKVEIKR	8.86
